run description: Double-blind randomized crossover pharmacokinetic study, single oral 900 μg vitamin D3 or 25(OH)D3
Type: in vivo, human
run parameters: both sexes, human, in vivo, po, 900 ug, patients with fat malabsorption (N = 6); single oral 900 μg; serum level of the administered substance; mean ± SEM
attribute measured: AUC (ng·h/mL)
# unit: ng·h/mL | format: bare number

Item C=C1CC[C@H](O)C/C1=C/C=C1\CCC[C@]2(C)[C@@H]([C@H](C)CCCC(C)C)CC[C@@H]12 [vitamin D3, cholecalciferol] has what recorded AUC?
1180

----------
run description: Double-blind randomized crossover pharmacokinetic study, single oral 900 μg vitamin D3 or 25(OH)D3
Format: in vivo, human
run parameters: both sexes, human, serum, po, 900 ug, healthy participants with higher BMI (N = 5); single oral 900 μg; mean ± SEM
attribute measured: Tmax (h)
Return type: number; implicit unit h.

Give its Tmax value. Item: C=C1CC[C@H](O)C/C1=C/C=C1\CCC[C@]2(C)[C@@H]([C@H](C)CCCC(C)(C)O)CC[C@@H]12 [25-hydroxyvitamin D3]
15.2

----------
run description: Double-blind randomized crossover pharmacokinetic study, single oral 900 μg vitamin D3 or 25(OH)D3
Assay type: in vivo, human
run parameters: both sexes, human, serum, po, 900 μg, healthy participants with higher BMI (N = 5); single oral 900 μg; mean ± SEM; read-out: Ctrough (trough level at day 14)
attribute measured: concentration at 14 days (ng/mL)
The reply should contain only the number, in ng/mL.

Quick check: concentration at 14 days of C=C1CC[C@H](O)C/C1=C/C=C1\CCC[C@]2(C)[C@@H]([C@H](C)CCCC(C)(C)O)CC[C@@H]12 [25-hydroxyvitamin D3] ?
4.6

----------
run description: Double-blind randomized crossover pharmacokinetic study, single oral 900 μg vitamin D3 or 25(OH)D3
Type: in vivo, human
run parameters: both sexes, human, in vivo, po, 900 ug, healthy participants (N = 10); single oral 900 μg; mean ± SEM
attribute measured: Tmax (h)
The reply should contain only the number, in h.

Look at this compound and give its reported Tmax. C=C1CC[C@H](O)C/C1=C/C=C1\CCC[C@]2(C)[C@@H]([C@H](C)CCCC(C)C)CC[C@@H]12
10.4

----------
run description: Double-blind randomized crossover pharmacokinetic study, single oral 900 μg vitamin D3 or 25(OH)D3
Assay type: in vivo, human
run parameters: both sexes, human, in vivo, po, 900 ug, patients with fat malabsorption (N = 6); single oral 900 μg; mean ± SEM
attribute measured: Cmax (ng/mL)
Please reply with the bare figure in ng/mL and do not write the unit itself.

# lookup: Cmax of C=C1CC[C@H](O)C/C1=C/C=C1\CCC[C@]2(C)[C@@H]([C@H](C)CCCC(C)C)CC[C@@H]12
24.3

----------
run description: Double-blind randomized crossover pharmacokinetic study, single oral 900 μg vitamin D3 or 25(OH)D3
Type: in vivo, human
run parameters: both sexes, human, serum, po, 900 ug, healthy participants with lower BMI (N = 5); single oral 900 μg; mean ± SEM
attribute measured: AUC (ng·h/mL)
The figure you give is taken to be in ng·h/mL; do not add the unit.

Recorded AUC of C=C1CC[C@H](O)C/C1=C/C=C1\CCC[C@]2(C)[C@@H]([C@H](C)CCCC(C)(C)O)CC[C@@H]12 [25-hydroxyvitamin D3] , please.
3630

----------
run description: Double-blind randomized crossover pharmacokinetic study, single oral 900 μg vitamin D3 or 25(OH)D3
Type: in vivo, human
run parameters: both sexes, human, serum, po, 900 ug, patients with fat malabsorption (N = 6); single oral 900 μg; mean ± SEM; read-out: T1/2 (elimination half-life) (converted)
attribute measured: half-life (h)
Output spec: scalar in h, unitless text.

Query: half-life; subject: C=C1CC[C@H](O)C/C1=C/C=C1\CCC[C@]2(C)[C@@H]([C@H](C)CCCC(C)(C)O)CC[C@@H]12 [25-hydroxyvitamin D3]
65.7

----------
run description: Double-blind randomized crossover pharmacokinetic study, single oral 900 μg vitamin D3 or 25(OH)D3
Assay type: in vivo, human
run parameters: both sexes, human, serum, po, 900 ug, patients with fat malabsorption (N = 6); single oral 900 μg; mean ± SEM
attribute measured: Cmax (ng/mL)
Field: numeric (ng/mL). Do not append units.

Cmax for C=C1CC[C@H](O)C/C1=C/C=C1\CCC[C@]2(C)[C@@H]([C@H](C)CCCC(C)(C)O)CC[C@@H]12 [25-hydroxyvitamin D3] ?
23.2

----------
run description: Double-blind randomized crossover pharmacokinetic study, single oral 900 μg vitamin D3 or 25(OH)D3
Assay type: in vivo, human
run parameters: both sexes, human, in vivo, po, 900 ug, healthy participants with lower BMI (N = 5); single oral 900 μg; mean ± SEM
attribute measured: Tmax (h)
# output: bare number, implied unit h

Request the reported Tmax associated with C=C1CC[C@H](O)C/C1=C/C=C1\CCC[C@]2(C)[C@@H]([C@H](C)CCCC(C)C)CC[C@@H]12 [vitamin D3, cholecalciferol]
11.2

----------
run description: Double-blind randomized crossover pharmacokinetic study, single oral 900 μg vitamin D3 or 25(OH)D3
Format: in vivo, human
run parameters: both sexes, human, serum, po, 900 ug, healthy participants with higher BMI (N = 5); single oral 900 μg; mean ± SEM
attribute measured: Cmax
Hi, when you answer, please include the unit after the number. Thanks!

Looking for the measured Cmax of C=C1CC[C@H](O)C/C1=C/C=C1\CCC[C@]2(C)[C@@H]([C@H](C)CCCC(C)(C)O)CC[C@@H]12 [25-hydroxyvitamin D3] , can you help?
21.4 ng/mL
